Molecular target: T1, O7-bN
T1 chain: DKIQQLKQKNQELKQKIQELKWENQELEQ
Assay: two-hybrid library CCNG1;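 also: natural log of median RNA to DNA barcode read ratio; higher means stronger binding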
PARAMETER MEASURED: interaction score

> print(dat)
                                      binder  parameter.measured  quantitative.result
 1    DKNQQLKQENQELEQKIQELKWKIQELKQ [O10-bN]   interaction score                 0.28
 2     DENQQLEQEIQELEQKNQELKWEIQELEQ [O5-bN]   interaction score               -0.471
 3     DENQQLEQKNQELKQKIQELKWKIQELKQ [O2-bN]   interaction score               -0.634
 4  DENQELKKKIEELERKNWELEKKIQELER [4H1845-bH]   interaction score               -0.332
 5    DKIQQLKQKNQELKQEIQELEWKNQELKQ [O16-bN]   interaction score               -0.333
 6     DKNQQLKQKIQELKQENQELEWKIQELKQ [O6-bN]   interaction score               -0.589
 7     DEIQQLEQKIQELKQENQELEWENQELEQ [O3-bN]   interaction score                -1.23
 8    DKNQQLKQKIQELKQKNQELKWEIQELEQ [O13-bN]   interaction score                -1.39
 9    DEIQQLEQENQELEQKIQELKWENQELEQ [O15-bN]   interaction score                 1.29
10    DKIQQLKQEIQELEQENQELEWENQELEQ [O11-bN]   interaction score                 -1.3
11     DKIQQLKQEIQELEQKNQELKWKNQELKQ [O4-bN]   interaction score               -0.226
12    DENQQLEQEIQELEQENQELEWKIQELKQ [O14-bN]   interaction score                 1.78
13     DKIQQLKQKNQELKQKIQELKWENQELEQ [O7-bN]   interaction score                -1.44
14     DKNQQLKQENQELEQEIQELEWEIQELEQ [O1-bN]   interaction score                -1.34
15    DEIQQLEQKIQELKQKNQELKWKNQELKQ [O12-bN]   interaction score               -0.201

src = paper PMC10397247
